# experimental.protocol: NCI Yeast Anticancer Drug Screen. Data for the mlh1 rad18 strain (AID 175)
# experimental.setup: S. cerevisiae mlh1 rad18 strain growth inhibition; at 50.0 µM; hits give high values
# Protocol: Growth inhibition of yeast strains with defined genetic alterations is measured as a screen for potential anti-cancer activity. Selected strains with alterations in DNA damage repair or cell cycle control were exposed to compounds and growth inhibition was measured relative to vehicle treated controls. The strain used in this assay is mlh1 rad18
The panel holds about 79,000 compounds, 15% with a hit somewhere; the sample as a whole holds those more often.
Each entry gets no if its growth inhibition stays under -10%, and yes if its growth inhibition is -10% or above.

- compound: "NC1CCCCCC1"
  group: "yes"
- compound: "C=CCOC(=O)C(C#N)C(C)CC(=O)OCC (centres undefined)"
  group: "yes"
- compound: "CC(=O)OCC1OC(n2cc(CBr)nn2)C(OC(C)=O)C(OC(C)=O)C1OC(C)=O (centres undefined)"
  group: "no"
- compound: "CCCCCCCCCC[C@@H](OC(C)=O)[C@@H]1CC[C@@H]([C@@H]2CC[C@@H]([C@@H](O)CC#C/C=C/CCCCCCC[C@@]3(Sc4ccccc4)C[C@H](C)OC3=O)O2)O1"
  group: "no"
- compound: "c1ccc(NCc2nc3ccccc3[nH]2)cc1"
  group: "yes"
- compound: "CCCCCCCCCCCC(=O)Nc1ccc(C(C)C)cc1"
  group: "no"
- compound: "O=C1CCC2c3ccccc3NCN12 (centres undefined)"
  group: "no"
- compound: "C=CC(C)(O)/C=C/C=C(\\C)C(CC1OC1(C)C)OC(=O)/C(C)=C\\C (centres undefined)"
  group: "no"
- compound: "C[C@H]1S[C@@H](c2ccc(Cl)cc2Cl)N(NC(=O)c2ccncc2)C1=O"
  group: "yes"
- compound: "O=c1cc(-c2ccccc2Cl)[nH]c2cc3c(cc12)OCO3"
  group: "no"

## Input Does the compound O=[N+]([O-])c1ccc(/C=N/Nc2cnnc(Cl)c2Cl)cc1 have recorded growth inhibition that is -10% or more?
## Output yes

## Input Does the compound CC(Oc1ccc([N+](=O)[O-])cc1)c1ccccc1 (centres undefined) have recorded growth inhibition that is -10% or more?
## Output yes

## Input Does the compound O=C(Nc1ncccn1)c1ccc(Cl)cc1Cl have recorded growth inhibition that is -10% or more?
## Output yes

## Input Does the compound C=C(C)C(=O)OCCN(CC)CC have recorded growth inhibition that is -10% or more?
## Output yes

====

# experimental.protocol: NCI Yeast Anticancer Drug Screen. Data for the bub3 strain (AID 167)
# experimental.setup: S. cerevisiae bub3 mutant strain, at 50.0 µM
This is part of a sample that, as a whole, favours compounds with a hit. Of some 79,000 tested, about 15% had one in any assay. The source made the active and inactive calls. No stated cut-off is given here; in the data, active means growth inhibition above about 70%; inactive means the rest.
Write down the outcome that applies. Available outcomes: active, inactive

- compound: "OCc1c(CO)c(Br)c2ccccc2c1Br"
  group: "inactive"
- compound: "CNCCSSCCN"
  group: "inactive"
- compound: "OCC(O)C(O)C(O)c1nn(-c2ccccc2)c2nc3ccccc3nc12 (configuration not stated)"
  group: "inactive"
- compound: "CC(=O)c1ccc2ccc3ccccc3c2c1O"
  group: "inactive"
- compound: "N#CCC1C2CC3C(C2=O)C13 (configuration not stated)"
  group: "inactive"

## Input Hi, sorry to bother you, what did the test record for NCCCn1[nH]c(=O)c2cccnc2c1=O ?
## Output inactive

## Input Hi, sorry to bother you, what did the test record for CC(C)CCCC(C)C1CCC2(C)C3CCC4C(C)(C)C(OCC(C)(C)C)CCC4(C)C3CCC12C (configuration not stated) ?
## Output inactive

====

# experimental.protocol: NCI Yeast Anticancer Drug Screen. Data for the bub3 strain (AID 167)
# experimental.setup: S. cerevisiae bub3 mutant strain, at 50.0 µM, hits give high values
Compounds without any hit were thinned out: in the full panel of roughly 79,000, 15% have a hit.
measurement.name: growth inhibition (%)
Answer with a number only, understood to be in %.

These solved cases illustrate the format of a correct answer.
- compound: "COc1ccc(CCNC(=O)C(=O)c2c[nH]c3ccccc23)cc1OC"
  measurement.name: "growth inhibition"
  value.units: "%"
  experimental.result: 9.55
- compound: "NC(=O)COc1c(Br)cc(Br)cc1Br"
  measurement.name: "growth inhibition"
  value.units: "%"
  experimental.result: -21.4

## Input Tell me the measured growth inhibition of COC(=O)COc1ccc(Cl)cc1C(=O)O , please.
## Output 27.5

## Input Tell me the measured growth inhibition of CCOC(=O)CCC(NC(=O)c1ccc(NCc2ccc3nc(-c4ccccc4)c(Cl)nc3c2)cc1)C(=O)OCC (stereo unspecified) , please.
## Output 1.7

## Input Tell me the measured growth inhibition of CCOC(=O)c1cc(C=O)oc1C , please.
## Output 2

## Input Tell me the measured growth inhibition of Cc1cccnc1NC=O , please.
## Output -24.7

====

# experimental.protocol: NCI Yeast Anticancer Drug Screen. Data for the mlh1 rad18 strain (AID 175)
# experimental.setup: S. cerevisiae mlh1 rad18 strain growth inhibition; at 50.0 µM; hits give high values
About 79,000 compounds went through this panel and 15% of them were active in at least one assay; those are over-represented in the sample as a whole.
measurement.name: growth inhibition (%)
Answer with a number only, understood to be in %.

These solved cases illustrate the format of a correct answer.
- compound: "COCCOC(=O)CO"
  value.units: "%"
  growth inhibition: 5.5
- compound: "COC1=CC(=C(\\C#N)c2ccccc2)/C=CC/1=N/O"
  value.units: "%"
  growth inhibition: 46.8
- compound: "CC(C)Oc1cc2c(cc1O)CC[C@@H]1[C@@H]2CC[C@]2(C)[C@@H](O)CC[C@@H]12"
  value.units: "%"
  growth inhibition: 44.1
- compound: "c1ccc([P+](c2ccccc2)(c2ccccc2)C2c3ccccc3CCc3ccccc32)cc1"
  value.units: "%"
  growth inhibition: 99.6
- compound: "COc1ccc2c3c([nH]c2c1[N+](=O)[O-])C(C)N(C)CC3 (configuration not stated)"
  value.units: "%"
  growth inhibition: 33.2
- compound: "O=C1CCCCC1COCC1CCCCC1=O (configuration not stated)"
  value.units: "%"
  growth inhibition: -21.4
- compound: "CC(C)CC(NC(c1ccccc1)P(=O)(O)O)C(=O)O (configuration not stated)"
  value.units: "%"
  growth inhibition: -27.1
- compound: "c1ccc(C[n+]2ccc3c(c2)CCCC3)cc1"
  value.units: "%"
  growth inhibition: 6.4

## Input Tell me the measured growth inhibition of CC1CCC2(CC1)N=C1CCC(C)CC1C1(CCC(C)CC1)N2 (configuration not stated) , please.
## Output -11.1

## Input Tell me the measured growth inhibition of NNC(=O)Cc1c[nH]c2ccccc12 , please.
## Output 2.25

## Input Tell me the measured growth inhibition of CC(CNC(=O)C12CC3CC(CC(C3)C1)C2)NC(=O)C12CC3CC(CC(C3)C1)C2 (configuration not stated) , please.
## Output 14.3

## Input Tell me the measured growth inhibition of O=C1C(=O)C(c2ccccc2)(c2ccccc2)C(=O)N1c1ccccc1 , please.
## Output -6.7

====

# experimental.protocol: NCI Yeast Anticancer Drug Screen. Data for the bub3 strain (AID 167)
# experimental.setup: S. cerevisiae bub3 mutant strain, at 50.0 µM, hits give high values
This is part of a sample that, as a whole, favours compounds with a hit. Of some 79,000 tested, about 15% had one in any assay. The source made the active and inactive calls. Rule as the data show it: active = growth inhibition above about 70%; inactive = the rest.
measurement.name: growth inhibition

- compound: "COC(=O)c1cccnc1C#N"
  growth inhibition: "0.55% (inactive)"
- compound: "Cc1cc(=O)[nH]c(NNC(=S)NC2CCCCC2)n1"
  growth inhibition: "-28.4% (inactive)"
- compound: "CCOc1ccccc1N=Nc1c(C)nc(N)nc1OCC"
  growth inhibition: "4% (inactive)"

Now for another entry.
## Input Tell me the measured growth inhibition of Nc1nc2c(=O)[nH]c(=O)[nH]c2n1C1OC(CO)C(O)C1O (centres undefined) , please.
## Output 14.2% (inactive)

====

# experimental.protocol: NCI Yeast Anticancer Drug Screen. Data for the bub3 strain (AID 167)
# experimental.setup: S. cerevisiae bub3 mutant strain, at 50.0 µM, hits give high values
# Protocol: Growth inhibition of yeast strains with defined genetic alterations is measured as a screen for potential anti-cancer activity. Selected strains with alterations in DNA damage repair or cell cycle control were exposed to compounds and growth inhibition was measured relative to vehicle treated controls. The strain used in this assay is bub3
This is part of a sample that, as a whole, favours compounds with a hit. Of some 79,000 tested, about 15% had one in any assay.
Listed molecules paired with reported growth inhibition
Answer with a number only, understood to be in %.

- molecule: "CCC1SC(N)=NC1c1ccccc1 (stereo not drawn)"
  value.units: "%"
  growth inhibition: 14.1
- molecule: "C=C1c2ccccc2C=NN1c1ccccc1"
  value.units: "%"
  growth inhibition: -8.75

Now for another entry.
## Input Tell me the measured growth inhibition of COC(=O)CCS(=O)(=O)Cc1ccccc1 , please.
## Output -1.65
